target: CNGA3 plus CNGB3 T383fsX channels (Homo sapiens, UniProt Q16281); construct: expressed in transfected cells; host or cells: Xenopus laevis oocytes injected with cRNA transcribed from pGEMHE constructs; experiment: Inside-out patch-clamp recording of channels expressed in Xenopus oocytes (CNGB3 T383fsX); format: biochemical; conditions: Hill fit; mean±SEM, n=9; read-out: apparent affinity K1/2, CPT-cAMP (channel activation)

COMPOUND: Nc1ncnc2c1nc(Sc1ccc(Cl)cc1)n2[C@@H]1O[C@@H]2COP(=O)(O)O[C@H]2[C@H]1O [CPT-cAMP, CPT-adenosine 3′,5′-cyclic monophosphate]
TESTED_SYSTEM: CNGA3 plus CNGB3 T383fsX channels (Homo sapiens, UniProt Q16281)
EC50 / µM: 29.8

* * *

Target: CNGA3 plus CNGB3 T383fsX channels (Homo sapiens)
Construct: expressed in transfected cells; host or cells: Xenopus laevis oocytes injected with cRNA transcribed from pGEMHE constructs
Sequence (Q16281 1-694): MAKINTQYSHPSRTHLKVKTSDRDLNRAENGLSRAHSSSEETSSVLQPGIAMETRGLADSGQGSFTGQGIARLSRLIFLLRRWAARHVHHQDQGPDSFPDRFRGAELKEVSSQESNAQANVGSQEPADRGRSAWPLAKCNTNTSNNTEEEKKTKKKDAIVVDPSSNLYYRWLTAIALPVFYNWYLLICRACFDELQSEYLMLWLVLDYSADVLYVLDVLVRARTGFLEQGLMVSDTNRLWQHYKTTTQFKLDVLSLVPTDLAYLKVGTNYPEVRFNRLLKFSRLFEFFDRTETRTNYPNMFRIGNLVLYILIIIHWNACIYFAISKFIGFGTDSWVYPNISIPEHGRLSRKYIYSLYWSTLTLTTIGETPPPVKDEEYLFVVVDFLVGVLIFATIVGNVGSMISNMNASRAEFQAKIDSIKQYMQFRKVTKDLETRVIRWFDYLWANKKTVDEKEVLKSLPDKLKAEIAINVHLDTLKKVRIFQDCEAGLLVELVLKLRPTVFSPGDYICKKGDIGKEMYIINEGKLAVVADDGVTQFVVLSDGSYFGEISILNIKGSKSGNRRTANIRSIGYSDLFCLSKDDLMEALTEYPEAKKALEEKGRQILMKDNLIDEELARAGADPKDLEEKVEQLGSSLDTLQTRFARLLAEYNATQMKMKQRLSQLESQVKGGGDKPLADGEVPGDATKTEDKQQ
Test: Inside-out patch-clamp recording of channels expressed in Xenopus oocytes (CNGB3 T383fsX)
Format: biochemical
Details: representative patch, Figure 5A; read-out: K1/2, cAMP, representative dose-response for CPT-cAMP activation
pEC50: −log10 of the molar value.

COMPOUND: Nc1ncnc2c1nc(Sc1ccc(Cl)cc1)n2[C@@H]1O[C@@H]2COP(=O)(O)O[C@H]2[C@H]1O [CPT-cAMP, CPT-adenosine 3′,5′-cyclic monophosphate]
pEC50: 4.55

* * *

target: WT human CNGA3 plus WT CNGB3 heteromeric channels (Homo sapiens, UniProt Q16281+Q9NQW8); construct: expressed in transfected cells; host or cells: Xenopus laevis oocytes injected with cRNA transcribed from pGEMHE constructs; assay: Inside-out patch-clamp recording of channels expressed in Xenopus oocytes (WT heteromeric); assay type: biochemical; settings: representative patch, Figure 5A; read-out: K1/2,CPT-cAMP, representative dose-response
pEC50: −log10 of the molar value.

COMPOUND: Nc1ncnc2c1nc(Sc1ccc(Cl)cc1)n2[C@@H]1O[C@@H]2COP(=O)(O)O[C@H]2[C@H]1O [CPT-cAMP, CPT-adenosine 3′,5′-cyclic monophosphate]
pEC50: 4.55

* * *

Molecular target: WT human CNGA3 plus WT CNGB3 heteromeric channels (Homo sapiens, UniProt Q16281+Q9NQW8)
Construct: expressed in transfected cells; host or cells: Xenopus laevis oocytes injected with cRNA transcribed from pGEMHE constructs
Sequence (Q16281 1-694): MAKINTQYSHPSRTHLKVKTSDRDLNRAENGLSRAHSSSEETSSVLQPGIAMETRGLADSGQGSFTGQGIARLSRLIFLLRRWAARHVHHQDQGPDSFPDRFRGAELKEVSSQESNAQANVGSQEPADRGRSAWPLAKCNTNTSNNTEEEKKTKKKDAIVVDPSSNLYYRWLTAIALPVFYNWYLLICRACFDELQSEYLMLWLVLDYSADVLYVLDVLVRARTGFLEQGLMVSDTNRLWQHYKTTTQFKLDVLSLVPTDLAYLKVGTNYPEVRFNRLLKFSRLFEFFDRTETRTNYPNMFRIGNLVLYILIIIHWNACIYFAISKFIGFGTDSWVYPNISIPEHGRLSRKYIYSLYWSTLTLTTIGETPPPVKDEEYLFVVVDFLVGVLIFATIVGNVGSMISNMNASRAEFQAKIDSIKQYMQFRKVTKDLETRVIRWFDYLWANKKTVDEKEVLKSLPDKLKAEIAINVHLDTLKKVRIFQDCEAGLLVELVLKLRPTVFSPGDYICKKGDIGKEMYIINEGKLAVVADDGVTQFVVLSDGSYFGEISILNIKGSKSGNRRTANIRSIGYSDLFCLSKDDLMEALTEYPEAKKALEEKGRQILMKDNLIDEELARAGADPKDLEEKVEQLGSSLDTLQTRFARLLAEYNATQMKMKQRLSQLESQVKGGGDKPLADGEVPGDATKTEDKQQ
Sequence (Q9NQW8 1-809): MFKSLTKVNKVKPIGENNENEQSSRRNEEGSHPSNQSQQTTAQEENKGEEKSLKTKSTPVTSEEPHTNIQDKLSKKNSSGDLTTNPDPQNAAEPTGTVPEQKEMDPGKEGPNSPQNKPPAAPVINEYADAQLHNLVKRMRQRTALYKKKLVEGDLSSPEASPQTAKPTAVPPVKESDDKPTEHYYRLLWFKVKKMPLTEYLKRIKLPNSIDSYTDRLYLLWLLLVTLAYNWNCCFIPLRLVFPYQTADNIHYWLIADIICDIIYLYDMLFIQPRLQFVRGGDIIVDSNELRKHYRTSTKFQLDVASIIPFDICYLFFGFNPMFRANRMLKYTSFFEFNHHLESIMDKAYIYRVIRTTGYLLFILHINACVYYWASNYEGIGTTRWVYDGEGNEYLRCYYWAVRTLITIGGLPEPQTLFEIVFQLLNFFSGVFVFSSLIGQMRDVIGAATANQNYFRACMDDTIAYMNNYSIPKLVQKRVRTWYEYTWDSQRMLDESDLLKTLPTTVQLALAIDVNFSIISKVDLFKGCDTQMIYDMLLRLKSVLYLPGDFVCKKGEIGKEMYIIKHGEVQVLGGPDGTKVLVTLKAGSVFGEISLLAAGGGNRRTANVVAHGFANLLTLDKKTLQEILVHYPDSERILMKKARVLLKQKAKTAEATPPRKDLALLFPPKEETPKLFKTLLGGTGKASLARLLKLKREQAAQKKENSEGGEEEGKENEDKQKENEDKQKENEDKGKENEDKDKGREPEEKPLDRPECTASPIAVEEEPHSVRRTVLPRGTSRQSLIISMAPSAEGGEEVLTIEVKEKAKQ
Assay: Inside-out patch-clamp recording of channels expressed in Xenopus oocytes (WT heteromeric)
Format: biochemical
Details: in the presence of 0.1 µM CPT-cGMP, Figure 6B; read-out: K1/2,L-cis-dilt., dose-response fit of Figure 6B

COMPOUND: COc1ccc([C@@H]2Sc3ccccc3N(CCN(C)C)C(=O)[C@@H]2OC(C)=O)cc1 [L-cis-diltiazem]
IC50 [µM]: 4.1

* * *

target: WT human CNGA3 plus WT CNGB3 heteromeric channels (Homo sapiens, UniProt Q16281+Q9NQW8); construct: expressed in transfected cells; host or cells: Xenopus laevis oocytes injected with cRNA transcribed from pGEMHE constructs; assay: Inside-out patch-clamp recording of channels expressed in Xenopus oocytes (WT heteromeric); format: biochemical; details: in the presence of 0.1 µM CPT-cGMP, intracellular face; mean±SEM, n=5; read-out: apparent affinity for L-cis-diltiazem K1/2, L-cis-dilt. (channel block)
pIC50: −log10 of the molar value.

COMPOUND: COc1ccc([C@@H]2Sc3ccccc3N(CCN(C)C)C(=O)[C@@H]2OC(C)=O)cc1 [L-cis-diltiazem]
pIC50: 5.39

* * *

target: CNGA3 plus CNGB3-F525N channels (Homo sapiens, UniProt Q16281+Q9NQW8, F525N); construct: expressed in transfected cells; host or cells: Xenopus laevis oocytes injected with cRNA transcribed from pGEMHE constructs; assay: Inside-out patch-clamp recording of channels expressed in Xenopus oocytes (CNGB3 F525N); assay type: biochemical; settings: representative patch, Figure 1B; read-out: K1/2,CPT-cGMP, representative dose-response

LINE_NOTATION: Nc1nc2c(nc(Sc3ccc(Cl)cc3)n2[C@@H]2O[C@@H]3COP(=O)(O)O[C@H]3[C@H]2O)c(=O)[nH]1
EC50 [nM]: 79
